src = ChEMBL document CHEMBL1125278

// values below are reported SVT
tested on: Mus musculus; assay: Antihypoxic effect tested by the ratio of survival time (SVT) of test mice to that of control group, dosed intraperitoneally at 30 mg/kg; assay type: functional; settings: route intraperitoneal
outcome-measure: SVT (%)

> print(dat)
                                    compound  outcome.measure  unit.of.measurement  value.reported
 1  CCC(C)c1cc(C)c2c(c1O)C(NC(=O)CN1CCN(c3cc(Cl)cc(Cl)c3)CC1)CC2 (stereo not drawn)              SVT                    %           139.4
 2  Cc1cc(C)c2c(c1O)C(NCC(=O)N1CCN(c3cccc(Cl)c3)CC1)C(C)(C)C2 (stereo not drawn)              SVT                    %           146.8
 3  COc1cccc(N2CCN(C(=O)CNC3c4c(O)c(C)cc(C)c4CC3(C)C)CC2)c1 (stereo not drawn)              SVT                    %            97.7
 4  Cc1cc(C)c2c(c1O)C(NC(=O)CN1CCCCC1)C(C)(C)C2 (stereo not drawn)              SVT                    %           112.7
 5  Cc1cc(C)c2c(c1O)C(NC(=O)CCN1CCN(c3cccc(Cl)c3)CC1)C(C)(C)C2 (stereo not drawn)              SVT                    %            79.5
 6  CCC(C)c1cc(C)c2c(c1O)C(NC(=O)CN1CCN(c3cccc(Cl)c3)CC1)CC2 (stereo not drawn)              SVT                    %           224.8
 7  Cc1cc(C)c2c(c1O)C(NC(=O)CN1CCOCC1)C(C)(C)C2 (stereo not drawn)              SVT                    %           104.3
 8  COc1cccc(N2CCN(CCNC3c4c(O)c(C)cc(C)c4CC3(C)C)CC2)c1 (stereo not drawn)              SVT                    %           120.8
 9  Cc1cc(C)c2c(c1O)C(NC(=O)CN1CCCC1=O)C(C)(C)C2 (stereo not drawn)              SVT                    %           135.3
10  Cc1cc(C)c2c(c1O)C(N)C(c1ccccc1)C2 (stereo not drawn)              SVT                    %           185.7
11  Cc1cc(C)c2c(c1O)C(NC(=O)CN1CCCC1)C(C)(C)C2 (stereo not drawn)              SVT                    %           134.2
12  Cc1ccc(C(=O)NC2CCc3c(C)cc(C)c(O)c32)cc1 (stereo not drawn)              SVT                    %            68.8
13  Cc1cc(C)c2c(c1O)C(NC(=O)CN1CCN(c3cccc(Cl)c3)CC1)C(C)(C)C2 (stereo not drawn)              SVT                    %           456.6
